- Target of assay: HEK-293 cells expressing a G810S mutant RET Kif5b-RET fusion protein (Homo sapiens, UniProt P07949, G810S)
- Construct: KIF5B (N-terminal portion incl. coiled-coil)
- Sequence (P07949 713-1063 G810S limits assumed): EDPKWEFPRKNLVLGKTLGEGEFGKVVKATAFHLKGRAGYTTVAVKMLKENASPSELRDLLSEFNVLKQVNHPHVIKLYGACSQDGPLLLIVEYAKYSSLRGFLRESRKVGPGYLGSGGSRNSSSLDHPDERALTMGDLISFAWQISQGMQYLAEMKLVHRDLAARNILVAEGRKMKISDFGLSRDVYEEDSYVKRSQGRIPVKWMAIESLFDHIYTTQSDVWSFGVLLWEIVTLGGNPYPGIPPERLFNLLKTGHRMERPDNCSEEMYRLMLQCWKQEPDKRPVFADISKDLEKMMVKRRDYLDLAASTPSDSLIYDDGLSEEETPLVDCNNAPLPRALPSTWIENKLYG
- Assay explanation: RET G810S Mutant Cell Assay (phospho-RET Tyr1062)
- Measurement setup: HEK-293 Kif5b-RET G810S, 1 hour incubation, phospho-RET normalized to GAPDH
- Protocol: The cellular potency of compounds inhibiting RET kinase were determined in HEK-293 cells expressing a G810R or G810S mutant RET Kif5b-RET fusion protein. Briefly, HEK-293 cells expressing a G810R or G810S mutant RET Kif5b-RET fusion protein were plated at 50K cells/well in 96 well poly-D-Lysine coated plates the day prior to the assay. […] The plates were washed with PBS-0.05% Tween20,100 μL PBS was added to each well, and the plates were read on a LI-COR Aerius fluorescent plate reader. […]
Reported IC50 is given for each of the following compounds.
Express the result in nM but write the number alone.

CNC(=O)c1ccc2c(Cl)c3n(c2c1)C(=O)NCc1c-3c2c(N)ncnc2n1C(C)C [Example 74] :: 918

Enquiry: Request the reported IC50 associated with COCCn1ccc(NC(=O)c2ccc3cc4n(c3c2)CCCc2c-4c3c(N)ncnc3n2C(C)C)n1 [Example 96]
Return: 116

Enquiry: Check CC1Cc2c(c3c(N)ncnc3n2C(C)C)-c2noc(C3CC3)c2C1=O (stereo not drawn) [Example 60] too.
Return: 101

Enquiry: Check CC(C)n1c2c(c3c(N)ncnc31)-c1noc(C3CC3)c1[C@@H](O)[C@@H](C)C2 (relative stereo) [Example 63] too.
Return: 352

Enquiry: Check CC(C)n1c2c(c3c(N)ncnc31)-c1cc3ccc(C(=O)NC4CC4)cc3n1C(=O)NC2 [Example 72] too.
Return: 6350

Enquiry: Check CC(=O)N1Cc2c(noc2C2CC2)-c2c(n(C(C)C)c3ncnc(N)c23)C1 [Example 36, 2,2,2-trifluoroacetate] too.
Return: 255

Enquiry: Check CC(C)n1c2c(c3c(N)ncnc31)-c1cc3ccc(C(=O)Nc4ccn(-c5ccccc5)n4)cc3n1CCC2 [Example 100] too.
Return: 15

Enquiry: Check Nc1ncnc2c1c1c(n2C2CCCC2)CC[C@@H](O)c2c-1noc2C1CC1 (single isomer, unassigned) [Example 125] too.
Return: 16
